# subject of test: EIF2AK3 (PERK) catalytic domain (Homo sapiens, UniProt Q9NZJ5)
# Construct: EIF2AK3 (PERK) catalytic domain (amino acids 536-1116)
# Sequence (Q9NZJ5 536-1116): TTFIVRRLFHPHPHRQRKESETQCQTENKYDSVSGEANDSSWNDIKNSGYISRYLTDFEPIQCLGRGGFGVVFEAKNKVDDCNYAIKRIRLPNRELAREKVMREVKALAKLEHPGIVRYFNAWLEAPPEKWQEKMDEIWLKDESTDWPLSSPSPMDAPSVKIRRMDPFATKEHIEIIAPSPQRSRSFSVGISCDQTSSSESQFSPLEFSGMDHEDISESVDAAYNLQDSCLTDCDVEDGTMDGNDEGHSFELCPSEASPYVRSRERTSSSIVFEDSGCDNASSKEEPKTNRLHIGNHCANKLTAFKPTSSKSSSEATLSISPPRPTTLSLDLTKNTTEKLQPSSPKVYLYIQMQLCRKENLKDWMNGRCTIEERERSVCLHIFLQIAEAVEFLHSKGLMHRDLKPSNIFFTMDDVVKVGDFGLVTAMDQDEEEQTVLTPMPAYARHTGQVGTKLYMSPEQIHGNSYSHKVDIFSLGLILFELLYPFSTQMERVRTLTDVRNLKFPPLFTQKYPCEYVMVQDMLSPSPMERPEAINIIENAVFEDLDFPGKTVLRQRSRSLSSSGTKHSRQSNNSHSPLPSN
# assay method text: In vitro inhibition of PERK enzyme activity (isolated), TR-FRET kinase assay
# details: 1.5 μM ATP, 45 min
# Text: Recombinant human EIF2AK2 (PKR) catalytic domain (amino acids 252-551), EIF2AK3 (PERK) catalytic domain (amino acids 536-1116), GFP-eIF2α substrate, and Terbium-labelled phospho-eIF2a antibody is obtained (Invitrogen, Carlsbad, CA). Express and purify HIS-SUMO-GCN2 catalytic domain (amino acids 584-1019) from E. coli. […] Monitor the resulting fluorescence in an EnVison® Multilabel reader (PerkinElmer, Waltham, MA). […]
measurement kind: IC50 (nM)

INSERT INTO measurements (chem_smiles, readout_unit, test_result) VALUES
  ('Cc1cc(NC(=O)[C@H](O)c2cc(F)cc(F)c2)ccc1-c1cnc(N)c(C(=O)NC(C)C)c1', 'nM', 2.2),
  ('Cc1cc(NC(=O)[C@H](O)c2cccc(F)c2)ccc1-c1cn(C)c2ncnc(N)c12', 'nM', 2.4);

From: patent US12590064B2
